FYI, the data here is from PubChem BioAssay AID2314.

This section presents compounds with their documented max response values.
assay: Cycloheximide Counterscreen for Small Molecule Inhibitors of Shiga Toxin; settings: cell reporter, cycloheximide protein synthesis inhibition counterscreen; active compounds read high; note: read at 38.3 µM for the half of the compounds with a filed dose; 0% is about no effect
Screen size: about 300,000 compounds; about 37,000 (12%) were called active. Only a selection was taken, and actives are over-represented in it overall.

compound | endpoint-unit | max response
CC12CCC(C(=O)N(NC(=O)c3ccccc3O)C1=O)C2(C)C (stereo not given) | % | 11.2
COc1ccc(Nc2nc(N)nc(CSC(=S)N3CCC(C)CC3)n2)cc1 | % | 47.2
COc1ccccc1Nc1nc(N)nc(CSC(=S)N2CCOCC2)n1 | % | 23.7
O=c1c2ccccc2nc(/C=C/c2ccc(F)cc2)n1-c1ccccc1O | % | 6.44
CCn1c(/C=C/c2ccc([N+](=O)[O-])o2)nc2ccccc2c1=O | % | -4.66
CC(C)(C)c1ccc(C(=O)NNC(=O)Cc2ccccc2)cc1 | % | 37.7
CC(C)CNC(=O)C(=O)Nc1ccc(N(C)C)cc1 | % | 38.6
CCOC(=O)c1cnc2ccc(F)cc2c1Nc1ccc2c(c1)OCCO2 | % | 32.3
CCCCCCCCn1c2c(c(=N)c3c1CCC3)CCCC2 | % | -1.22
Cc1ccccc1C(CC(=O)c1cccs1)C(C#N)C#N (stereo not given) | % | 58.6
O=C(NN1C(=O)C2C(C1=O)C1C=CC2C12CC2)c1ccccc1Cl (stereo not given) | % | 0.62
O=C(CN(C(=O)CCC(=O)Nc1nccs1)c1ccc(F)cc1)NCc1ccc2c(c1)OCO2 | % | -6.07
CCCN(CCC)S(=O)(=O)c1ccc(C(=O)N2CC3CCC(CC3)C2)cc1 | % | -1.36
Cc1cc(C)c(S(=O)(=O)N2CCOCC2)cc1C | % | 1.22
CC(C)CNC(=O)C(=O)NCc1ccccc1 | % | -1.62
CC(=O)Nc1ccc(C(=O)C(Cc2ccccc2)N(C)C)cc1 (stereo not given) | % | 9.54
O=c1c2ccccc2nc(/C=C/c2ccco2)n1-c1ccccc1O | % | 24.2
C=CCNC(=O)/C=C/c1ccc(C(C)C)cc1 | % | 57.7
CC1CN(CC(=O)NC(C)c2ccccc2)CC(C)O1 (stereo not given) | % | -1.49
CC1CCC2(CC1)NC(=O)N(Cc1nnc(-c3cccs3)o1)C2=O (stereo not given) | % | 7.72
